These measurements were taken from PubChem BioAssay (NCI).

Test system: UACC-257 melanoma
assay comment: NCI tumour cell line growth inhibition, 48 h
property: log10 TGI (log10 of the value in µM)

O=[N+]([O-])c1ccc(CSc2c3ccccc3nc3ccccc23)cc1
1.02
COc1cc2c(cc1OCCCOc1cc3c(cc1OC)C(=O)N1CC(F)(F)C[C@H]1C=N3)N=C[C@@H]1CC(F)(F)CN1C2=O
0.74
OC1C2CCC3C2CC(C(O)(c2ccccc2)c2ccccc2)C13 (configuration not stated)
1.98
COc1ccc2nc(-c3ccc(Cl)cc3)cc(-c3nnc(SCC(=O)Nc4ccc(/C(C)=N\O)cc4)o3)c2c1
0.98
ClCCN(CC#CCCCC#CCN(CCCl)CCCl)CCCl
1.47
O=S(Cc1cnc2ccccc2c1)c1nc2ccccc2nc1-c1cccs1 (configuration not stated)
1.49
COc1ccc2c(c1)OCC1=C2Oc2ccccc2C1
1.94
OCCNC(=S)Nc1ccc(-c2nc(N3C[C@H]4CC[C@@H](C3)O4)c3cccn3n2)cc1
-0.33
COc1ccc2c(c1)CC[C@@H]1C2CC[C@]2(C)C(=N\O)/C(=N/O)CC12 (some centres not stated)
1.52
COC(=O)C12OCC34C(CC5C(C)C6=CC(=O)OC6=CC5(C)C3C(O)C1O)OC(=O)C(OC(C)=O)C24 (configuration not stated)
1.48

###

Test system: SNB-75 CNS
assay comment: NCI tumour cell line growth inhibition, 48 h; in the data active = GI50 below about 0.43 µM; inactive = the rest
Outcome codes: yes for active, no for inactive

[O-]c1ccccc1[C-]=Nc1ccccc1O.[O-]c1ccccc1[C-]=Nc1ccccc1O.[O]=[U]=[O]
no
Cc1cc(N2CCCCC2)nc(NCc2cc(Nc3ccnc4cc(Cl)ccc34)ccc2F)n1
no
O=C1C2=C(C(=O)c3c(O)ccc(O)c31)N(c1cccnc1)Cc1ccccc1O2
no
CCN(CC)c1ccc(CNc2cc(C)nc3ccc(OC)cc23)cc1
no
CC(C)C[C@H](NC(=O)[C@H](Cc1ccccc1)NC(=O)c1cnccn1)B(O)O
yes
C=C(C)[C@@H]1CC[C@]2(C(=O)N3CCN(C)CC3)CC[C@]3(C)[C@H](CC[C@@H]4[C@@]5(C)C/C(=C/c6ccncc6)[C@H](O)C(C)(C)[C@@H]5CC[C@]43C)[C@@H]12
no
COC(=O)C12OCC34C(CC5C(C)C6=CC(=O)OC6=CC5(C)C3C(O)C1O)OC(=O)C(OC(C)=O)C24 (centres undefined)
no
O=C(/C=C/c1ccccc1)Nc1ncc(Cc2ccccc2)s1
yes
COc1ccc2c(c1)O/C(=C\c1ccc([N+](=O)[O-])o1)C2=O
no

###

Test system: NCI-H23 lung
assay comment: NCI tumour cell line growth inhibition, 48 h
property: TGI

CC(=O)OC1COC(n2c(O)c(N=Nc3ccc([N+](=O)[O-])cc3)c3cc(Br)c([N+](=O)[O-])cc32)C(OC(C)=O)C1OC(C)=O (stereo unspecified)
> 100 µM
O=c1/c(=C/c2ccccc2O)sc2nc3ccccc3n12
> 100 µM
CN(C(=N)c1ccccc1)c1ccccc1
> 100 µM
Cc1cccc(NC(N)=S)c1
> 100 µM
CCCCCCCCCCCCCCCCSS(C)(=O)=O
> 75.8 µM
O=c1[nH]c(=S)n(-c2cccc3ccccc23)c(O)c1/C=C1\C=Nc2ccccc21
3.48 µM
CC(=O)NC1C(O)C(O)C(CO)OC1n1nc(SCc2ccccc2)c(=O)[nH]c1=O (stereo unspecified)
> 100 µM
CCCCCCCCCCCCCCCCCc1cc(Cl)nc(Cl)n1
> 100 µM
CN(C)c1ccc(/C=N/NC(=O)CSc2nc3sc4c(c3c(=O)n2-c2ccccc2)CCCCC4)cc1
> 100 µM
COC(=O)CCC(=O)Nc1cccc(C(F)(F)F)c1
> 100 µM
COC(=O)c1ccc(CS(=O)(=O)c2ccccc2)cc1
> 100 µM

###

TGI: recorded values
System: SN12C renal
assay comment: NCI tumour cell line growth inhibition, 48 h
property: TGI

C/C(=N\NC(=O)c1cccc(S(=O)(=O)N2CCN(C)CC2)c1)c1cc(Cl)ccc1O
> 100 µM
Cc1ccc([N+]2=NC(c3ccc([N+](=O)[O-])cc3)=NN(c3ccccc3)C2)cc1
> 100 µM
O=c1oc2cc(O)ccc2c(O)c1C(c1ccc2ccccc2c1)c1c(O)c2ccc(O)cc2oc1=O
> 100 µM
OCCNC(=S)Nc1ccc(-c2nc(N3C[C@H]4CC[C@@H](C3)O4)c3cccn3n2)cc1
16.9 µM
CC(C)(C)n1nc(C2CC2)cc1NC(=O)Nc1ccc(Cl)cc1
> 100 µM
CCOc1cccc2sc(N)nc12
> 100 µM
CCCCCCCCCCCCCCCCC(=O)NCC(=O)NCC(=O)NC(Cc1ccccc1)C(=O)Oc1ccc([N+](=O)[O-])cc1 (stereo unspecified)
34.6 µM
Cc1cc(NCCCNc2ccnc3cc(Cl)ccc23)nc(Nc2ccc(C(=O)N3CCCCC3)cc2)n1
5.52 µM
O=C(O)c1[nH]c(=O)[nH]c(=O)c1CN1CCCCC1
> 100 µM
CO[C@H](C(=O)O[C@H]1C(=O)N2CCC3CCC1C32C)c1ccccc1 (stereo partly specified)
> 100 µM
CC(C)NC1CCCCC2c3cc(F)ccc3[C@]12O (stereo partly specified)
> 100 µM
CC1(C)CCc2cc3c(cc2O1)OC(C)(C)CC3=O
> 100 µM
CC1(C)CC(=O)c2c([nH]c(=S)c(C#N)c2-c2ccc(Br)cc2)C1
> 100 µM
O=c1[nH]ccc2nc(N3CCC(O)CC3)nc(Nc3ccc(N4CCOCC4)cc3)c12
> 100 µM
CN(C)C(=O)C(NCCO)c1ccccc1 (stereo unspecified)
> 100 µM
CN(C(=N)c1ccccc1)c1ccccc1
> 100 µM
O=C1c2cccc3c([N+](=O)[O-])ccc(c23)C(=O)N1CCCCl
> 10 µM
Nc1c(C(=O)c2ccc(Cl)cc2)[nH]c(Nc2ccc(Cl)cc2)c1C(=S)Nc1ccccc1
22.5 µM
O=C1CCN=C(NC(=O)C(F)(F)F)N1CCc1c[nH]c2ccccc12
> 100 µM
c1ccc(C2(c3ccccc3)S/C(=C3/SC(c4ccccc4)(c4ccccc4)c4ccccc43)c3ccccc32)cc1
> 100 µM
Nc1ccc([As](=O)(O)O)cc1
> 100 µM

###

Test system: MALME-3M melanoma
assay comment: NCI tumour cell line growth inhibition, 48 h
TGI: recorded values
property: TGI

CS(=O)(=O)c1nccc(-c2c(-c3cccc(OCc4ccccc4)c3)nc3sccn23)n1
> 100 µM
O=C1CC(C(O)C(O)C(O)CO)CC(=O)N1 (stereo not drawn)
> 100 µM
OC1C2CCC3C2CC(C(O)(c2ccccc2)c2ccccc2)C13 (stereo not drawn)
71.3 µM
CCCCCCCCCCCCCCCCSS(C)(=O)=O
24.9 µM
Cc1ccc2oc(=O)cc(CC(=O)O)c2c1
> 100 µM
c1cc2c(cc1NC1=NCCO1)CCCC2
21.9 µM
COC(=O)C12OCC34C(CC5C(C)C6=CC(=O)OC6=CC5(C)C3C(O)C1O)OC(=O)C(OC(C)=O)C24 (stereo not drawn)
21.9 µM
CCc1cc(C)cc2[n+]1CC=C2C
> 100 µM
Nc1nc2ccccc2c2[nH]c3ccccc3c12
3.19 µM
COc1ccc2c3c(ccc2c1)NC(C(=O)O)CC3 (stereo not drawn)
> 100 µM
O=C(O)c1[nH]c(=O)[nH]c(=O)c1CN1CCCCC1
> 100 µM
CCCCC1CCCCCCc2[nH]c(/C=C3\N=C(c4ccc[nH]4)C=C3OC)cc21 (stereo not drawn)
0.689 µM
NNC(=O)C(O)C(O)C(O)CO (stereo not drawn)
> 100 µM
OCCNC(=S)Nc1ccc(-c2nc(N3C[C@H]4CC[C@@H](C3)O4)c3cccn3n2)cc1
0.055 µM
COc1ccc2c(c1)C(=O)c1c-2n(CCCCl)c(=O)c2cc([N+](=O)[O-])ccc12
0.461 µM
COc1ccc(-c2cc(=O)c3c(OC)c(O)c(OC)cc3o2)cc1
> 100 µM
CCOc1cc(/C=N\O)cc(/C=N/O)c1O
> 100 µM
COc1ccc(NC(=O)COc2ccccc2)c(C(N)=O)c1
> 100 µM
NCc1ccc(O)c(O)c1O
> 100 µM
Cn1cc(S(=O)(=O)NC(=O)Nc2ccc(Cl)cc2)c(=O)c2ccc(Cl)cc21
> 100 µM
CC(C)(c1ccccc1)c1ccc(Oc2ccc3c(c2)-c2nc-3nc3[nH]c(nc4nc(nc5[nH]c(n2)c2ccc(Oc6ccc(C(C)(C)c7ccccc7)cc6)cc52)-c2cc(Oc5ccc(C(C)(C)c6ccccc6)cc5)ccc2-4)c2ccc(Oc4ccc(C(C)(C)c5ccccc5)cc4)cc32)cc1
> 100 µM
CC1(C)CCCC2(C)C3=C(CCC12)C(=O)OC3 (stereo not drawn)
> 100 µM
O=S1(=O)OCc2ccccc21
> 100 µM
O=S(=O)(Nc1nc2ccccc2nc1Nc1cccc2ccccc12)c1ccccc1
> 100 µM
CC[C@]1(Cc2ccc(OC)c(OC)c2)C=[N+]([O-])O[C@H](OC2CCCCC2c2ccccc2)[C@@H]1OC(C)=O (stereo partly drawn)
> 100 µM
N=C1/C(=C/c2ccco2)C(=O)N=C2SC=NN12
> 100 µM
Cc1ccc([N+]2=NC(c3ccc([N+](=O)[O-])cc3)=NN(c3ccccc3)C2)cc1
> 100 µM
Cc1cc(Cl)ccc1NC(=O)C1C(=O)C(=O)N(c2ccc(Cl)cc2C)C1=O (stereo not drawn)
> 100 µM
C/C(=N\N)C(CN1CCCCC1)C(c1ccccc1)c1c(O)c2ccccc2oc1=O (stereo not drawn)
> 100 µM
CCCCCCCCCCCCCCCCCc1cc(Cl)nc(Cl)n1
> 100 µM
COc1ccc(Nc2[nH]n(C3=Nc4ccccc4Sc4ccccc43)c(=O)c2C#N)cc1
> 100 µM
CCN1C(=O)/C(=C\c2coc3ccccc3c2=O)SC1=S
> 100 µM
CCC1CCC2C3CC=C4CC(OC(C)=O)C(N)CC4(C)C3CCC12C (stereo not drawn)
8.33 µM
COc1c(C(=O)/C(=N/Nc2cccc(Cl)c2)C(C)=O)c(O)c(OC)c2occc12
> 100 µM
C[C@@]1([C@H](OC(=O)c2cccc3ccccc23)C(N)=O)CO1
11.2 µM
O=C1c2ccccc2-c2nc(-c3cccs3)cc3c2c1nc1ccccc13
23.1 µM
Cc1ccccc1NC(=O)N/C(N)=N/c1nc(C)c(C)s1
> 100 µM
CCC(C#N)NCc1ccc(CNC(C#N)CC)cc1 (stereo not drawn)
> 100 µM
Cc1ccc(N/C(=C(/C(Cl)=C(Cl)Cl)[N+](=O)[O-])n2nnc3ccccc32)cc1
29.9 µM
NC(N)=NS(=O)(=O)c1ccc(NC(=O)c2cccn3c(=O)c4ccccc4nc23)cc1
> 100 µM
COC1=CC(=O)c2c(O)c3c(c(O)c2C1=O)OC1(Oc2c(cc4cc(C)oc(=O)c4c2O)CC1O)C3O (stereo not drawn)
10.3 µM
Nc1nc(Cl)cc(NCC2(CO)CC(CCCc3ccccc3)C2)n1 (stereo not drawn)
> 100 µM
COc1ccccc1CN=C1NC(=O)/C(=C/c2ccc3ncccc3c2)S1
> 25 µM
